Field: LD50. Provide a value for each of the compounds that follow.
Protocol notes: Acute toxicity in mice
Recorded conditions: mouse, in vivo, po, dose at which 50% of the animals died, read-out: Toxicity (LD50) p.o.
Structures can show the parent of a compound that is named as a salt.

Give its LD50 value. Item: CCN(CC)CCCN1C(=O)c2c(ccc3nc(-c4ccccc4)[nH]c23)C(C)(C)C1=O [O, dihydrochloride]
92 mg/kg

# get_value(readout='LD50', item= CC1(C)C(=O)NC(=O)c2c1ccc1nc(C3CCCCC3)[nH]c21 [F] )
> 300 mg/kg

Please look up its LD50: COc1ccc(S(C)(=O)=O)cc1-c1nc2ccc3c(c2[nH]1)C(=O)NC(=O)C3(C)C [K]
> 300 mg/kg

I have this compound here, CC1(C)C(=O)NC(=O)c2c1ccc1nc(Cc3ccccc3)[nH]c21 [D] , and I need its recorded LD50.
> 300 mg/kg
